Provide the recorded %Inh for the entries that follow.
System: ERBB4;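 note: KINOMEscan kinase panel screen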
CONDITION_SUMMARY: concentration: 1 μM, replicates: in singlicate; n = 1
Give bare numbers, in %.

- MOL: "COc1ccc(C2=C(Nc3cccc(C(=O)O)c3)C(=O)NC2=O)cc1"
  %Inh [%]: 0
- MOL: "COC(=O)c1c(-c2ccccc2)c2cc(C(=O)O)ccc2c(=O)n1Cc1ccccc1"
  %Inh [%]: 2
- MOL: "CC(C)(C)c1ccc(C(=O)Nc2cn3cc(-c4cccnc4)ccc3n2)cc1"
  %Inh [%]: 1

Field: %Inh. Fill in for each record below.
1. Nc1nc(-c2nccs2)c(-c2ccnc3ccccc23)s1
2. Cc1c(O)cccc1Nc1ccnc2ccc(C(F)(F)F)cc12.Cl

OUTPUT:
1: 27; 2: 0

Reference for the values: paper PMC5540273
